System: 282377-053-R-J1-PDC complex spheroids, viability
Assay: Anticancer human tumor 282377-053-R-J1-PDC patient-derived colon adenocarcinoma cell line growth inhibition [GQUAD]
Details: second compound 1 µM; first compound 10 µM; stronger effect = lower value
MEASUREMENT_TYPE: viability, T/C

Sample COc1cc(C2c3cc4c(cc3C(OC3OC5COC(C)OC5C(O)C3O)C3COC(=O)C23)OCO4)cc(OC)c1O (stereo unspecified) + Cc1[nH]c2ccc(F)cc2c1-c1nc2c3cccnc3c3ncccc3c2[nH]1 ; viability, T/C observed: 54.4%

Sample C#Cc1c(F)ccc2cc(O)cc(-c3ncc4c(N5CC6CCC(C5)N6)nc(OCC56CCCN5CC(F)C6)nc4c3F)c12 (stereo unspecified) + CN(C)c1ccc(Nc2c3ccc(NC(=O)CCN4CCCC4)cc3nc3cc(NC(=O)CCN4CCCC4)ccc23)cc1 ; viability, T/C observed: 78.4%

Sample Nc1ccn(C2OC(CO)C(O)C2(F)F)c(=O)n1 (stereo unspecified) + CN(C)c1ccc(Nc2c3ccc(NC(=O)CCN4CCCC4)cc3nc3cc(NC(=O)CCN4CCCC4)ccc23)cc1 ; viability, T/C observed: 20.3%

Sample CC1COCCN1c1cc(-c2ccnn2C)c2ccnc(-c3ccn[nH]3)c2n1 (stereo unspecified) + Cc1[nH]c2ccc(F)cc2c1-c1nc2c3cccnc3c3ncccc3c2[nH]1 ; viability, T/C observed: 18.8%

Sample CC(C)(O)C1CCC(Nc2ccc3ncc(-c4cccc(C(F)(F)F)c4)n3n2)CC1 (stereo unspecified) + CN(C)c1ccc(Nc2c3ccc(NC(=O)CCN4CCCC4)cc3nc3cc(NC(=O)CCN4CCCC4)ccc23)cc1 ; viability, T/C observed: 31.3%

Sample O=c1[nH]cc(F)c(=O)[nH]1 + Cc1[nH]c2ccc(F)cc2c1-c1nc2c3cccnc3c3ncccc3c2[nH]1 ; viability, T/C observed: 68.4%

---

System: 282377-053-R-J1-PDC complex spheroids, viability
Assay: Anticancer human tumor 282377-053-R-J1-PDC cell line growth inhibition [GQUAD];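 also: spheroids exposed to compounds for 7 days before readout; percent of vehicle DMSO control viability with 100% = untreated-like growth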
Conditions: second compound 0.1 µM; first compound 0.1 µM; stronger effect = lower value
Kindly supply the reported viability, T/C values for the records listed here.
Respond numerically; units are % and should not be typed.

Sample COc1cc(C2c3cc4c(cc3C(OC3OC5COC(C)OC5C(O)C3O)C3COC(=O)C23)OCO4)cc(OC)c1O (centres undefined) + CN(C)c1ccc(Nc2c3ccc(NC(=O)CCN4CCCC4)cc3nc3cc(NC(=O)CCN4CCCC4)ccc23)cc1 ; viability, T/C observed: 85.4

Sample COc1cccc2c1C(=O)c1c(O)c3c(c(O)c1C2=O)CC(O)(C(=O)CO)CC3OC1CC(N)C(O)C(C)O1 (centres undefined) + Cc1[nH]c2ccc(F)cc2c1-c1nc2c3cccnc3c3ncccc3c2[nH]1 ; viability, T/C observed: 114

Sample O=C(NO)c1cnc(N2CCN(S(=O)(=O)c3ccc4ccccc4c3)CC2)nc1 + Cc1[nH]c2ccc(F)cc2c1-c1nc2c3cccnc3c3ncccc3c2[nH]1 ; viability, T/C observed: 18.6

Sample C=CCn1c(=O)c2cnc(Nc3ccc(N4CCN(C)CC4)cc3)nc2n1-c1cccc(C(C)(C)O)n1 + CN(C)c1ccc(Nc2c3ccc(NC(=O)CCN4CCCC4)cc3nc3cc(NC(=O)CCN4CCCC4)ccc23)cc1 ; viability, T/C observed: 95.3

Sample Nc1ccn(C2OC(CO)C(O)C2(F)F)c(=O)n1 (centres undefined) + Cc1[nH]c2ccc(F)cc2c1-c1nc2c3cccnc3c3ncccc3c2[nH]1 ; viability, T/C observed: 81.1

Sample CC1COCCN1c1cc(-c2ccnn2C)c2ccnc(-c3ccn[nH]3)c2n1 (centres undefined) + Cc1cnc(CNC(=O)c2c(=O)c3ccc(N4CCCN(C)CC4)nc3n3c2sc2ccccc23)cn1 ; viability, T/C observed: 43.5

Sample COc1ccc([C@@H](O)c2cc(-c3ncnc4cc(N5CCOCC5)ccc34)c(F)cc2Cl)nn1 + Cc1cnc(CNC(=O)c2c(=O)c3ccc(N4CCCN(C)CC4)nc3n3c2sc2ccccc23)cn1 ; viability, T/C observed: 113

Sample COc1cc(C2c3cc4c(cc3C(OC3OC5COC(C)OC5C(O)C3O)C3COC(=O)C23)OCO4)cc(OC)c1O (centres undefined) + Cc1cnc(CNC(=O)c2c(=O)c3ccc(N4CCCN(C)CC4)nc3n3c2sc2ccccc23)cn1 ; viability, T/C observed: 91.3

Sample C#Cc1c(F)ccc2cc(O)cc(-c3ncc4c(N5CC6CCC(C5)N6)nc(OCC56CCCN5CC(F)C6)nc4c3F)c12 (centres undefined) + Cc1[nH]c2ccc(F)cc2c1-c1nc2c3cccnc3c3ncccc3c2[nH]1 ; viability, T/C observed: 114
